target: Structural capsid protein (Human immunodeficiency virus 1, UniProt Q76129)
Sequence (Q76129 whole entry): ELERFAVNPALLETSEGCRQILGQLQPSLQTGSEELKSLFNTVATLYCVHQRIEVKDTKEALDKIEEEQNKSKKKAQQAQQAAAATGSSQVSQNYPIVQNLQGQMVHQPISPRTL
pIC50: −log10 of the molar value.
reported_metric: pIC50

molecule: Cc1ccc(NC(=O)NCCSCc2ccc(CN(C)C)o2)cc1Cl
reported_metric: pIC50
readout_value: 4.22
